- Test system: 186277-243-T-J2-PDC complex spheroid viability
- ASSAY_EXPLANATION: Anticancer human tumor 186277-243-T-J2-PDC patient-derived colon adenocarcinoma cell line growth inhibition [GQUAD]
- CONDITION_LABEL: curve of first compound; second compound 0.1 µM
METRIC_NAME: pIC50
Notebook: values listed as pIC50 are -log10 of the concentration (mol/L).

{"columns": ["COMPOUND", "TARGET", "pIC50"],
 "data": [
  ["CCc1c2c(nc3ccc(O)cc13)-c1cc3c(c(=O)n1C2)COC(=O)[C@]3(O)CC + Cc1cnc(CNC(=O)c2c(=O)c3ccc(N4CCCN(C)CC4)nc3n3c2sc2ccccc23)cn1", "186277-243-T-J2-PDC complex spheroid viability", 8.15]
]}

Lookup: Request - read-out pIC50 | tested on 186277-243-T-J2-PDC complex spheroid viability | compound CC1COCCN1c1cc(-c2ccnn2C)c2ccnc(-c3ccn[nH]3)c2n1 (stereo not given) + CN(C)c1ccc(Nc2c3ccc(NC(=O)CCN4CCCC4)cc3nc3cc(NC(=O)CCN4CCCC4)ccc23)cc1
Found: 7.33

---

- System: 186277-243-T-J2-PDC complex spheroid viability
- ASSAY_EXPLANATION: Anticancer human tumor 186277-243-T-J2-PDC cell line growth inhibition [GQUAD];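 further: spheroids exposed to drugs for 7 days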;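 on viability, T/C: 100% = DMSO vehicle control viability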
- CONDITION_LABEL: second compound 0.316 µM; first compound 10 µM; stronger effect = lower value
METRIC_NAME: viability, T/C (%)
Respond with the bare value in %.

{"columns": ["MOLECULE", "METRIC_NAME", "MEASURED_NUMBER"],
 "data": [
  ["C=CCn1c(=O)c2cnc(Nc3ccc(N4CCN(C)CC4)cc3)nc2n1-c1cccc(C(C)(C)O)n1 + Cc1cnc(CNC(=O)c2c(=O)c3ccc(N4CCCN(C)CC4)nc3n3c2sc2ccccc23)cn1", "viability, T/C", 24.1]
]}

Lookup: Field request: viability, T/C | item: C=CCn1c(=O)c2cnc(Nc3ccc(N4CCN(C)CC4)cc3)nc2n1-c1cccc(C(C)(C)O)n1 + Cc1[nH]c2ccc(F)cc2c1-c1nc2c3cccnc3c3ncccc3c2[nH]1
Found: 11.5

Lookup: Give its viability, T/C value. Item: COc1cccc2c1C(=O)c1c(O)c3c(c(O)c1C2=O)CC(O)(C(=O)CO)CC3OC1CC(N)C(O)C(C)O1 (stereo unspecified) + Cc1[nH]c2ccc(F)cc2c1-c1nc2c3cccnc3c3ncccc3c2[nH]1
Found: 0.26

Lookup: What does the record list as viability, T/C for CC1COCCN1c1cc(C2(O)CC3CCC(C2)O3)c2cnn(-c3ccn[nH]3)c2n1 (stereo unspecified) + Cc1cnc(CNC(=O)c2c(=O)c3ccc(N4CCCN(C)CC4)nc3n3c2sc2ccccc23)cn1 ?
Found: 2.1

Lookup: Item under review: CC(C)(O)C1CCC(Nc2ccc3ncc(-c4cccc(C(F)(F)F)c4)n3n2)CC1 (stereo unspecified) + Cc1[nH]c2ccc(F)cc2c1-c1nc2c3cccnc3c3ncccc3c2[nH]1 . Reported viability, T/C?
Found: 32.6

Lookup: Name the reported viability, T/C value associated with the molecule CCCS(=O)(=O)Nc1ccc(F)c(C(=O)c2c[nH]c3ncc(-c4ccc(Cl)cc4)cc23)c1F + Cc1[nH]c2ccc(F)cc2c1-c1nc2c3cccnc3c3ncccc3c2[nH]1
Found: 22.7

Lookup: For the molecule shown here, COc1cccc2c1C(=O)c1c(O)c3c(c(O)c1C2=O)CC(O)(C(=O)CO)CC3OC1CC(N)C(O)C(C)O1 (stereo unspecified) + CN(C)c1ccc(Nc2c3ccc(NC(=O)CCN4CCCC4)cc3nc3cc(NC(=O)CCN4CCCC4)ccc23)cc1 , give the reported viability, T/C.
Found: 0.49

Lookup: Can you share its viability, T/C? I mean this molecule: C=CC(=O)N1CCN(c2nc(=O)n(-c3c(C)ccnc3C(C)C)c3nc(-c4c(O)cccc4F)c(F)cc23)C(C)C1 (stereo unspecified) + Cc1[nH]c2ccc(F)cc2c1-c1nc2c3cccnc3c3ncccc3c2[nH]1
Found: 88.7

Lookup: Any idea what viability, T/C was measured for CC1COCCN1c1cc(C2(S(C)(=N)=O)CC2)nc(-c2ccnc3[nH]ccc23)n1 (stereo unspecified) + CN(C)c1ccc(Nc2c3ccc(NC(=O)CCN4CCCC4)cc3nc3cc(NC(=O)CCN4CCCC4)ccc23)cc1 ?
Found: 5.05

Lookup: Record request: viability, T/C value, item CC(C)(O)C1CCC(Nc2ccc3ncc(-c4cccc(C(F)(F)F)c4)n3n2)CC1 (stereo unspecified) + Cc1cnc(CNC(=O)c2c(=O)c3ccc(N4CCCN(C)CC4)nc3n3c2sc2ccccc23)cn1
Found: 20.9

Lookup: Requested read-out: viability, T/C. Entry: C=CCn1c(=O)c2cnc(Nc3ccc(N4CCN(C)CC4)cc3)nc2n1-c1cccc(C(C)(C)O)n1 + CN(C)c1ccc(Nc2c3ccc(NC(=O)CCN4CCCC4)cc3nc3cc(NC(=O)CCN4CCCC4)ccc23)cc1
Found: 12.2
